# experimental.system: T1, KHSRP130-503 (four KH domains) (Homo sapiens, UniProt Q92945 130-503)
# T1 sequence: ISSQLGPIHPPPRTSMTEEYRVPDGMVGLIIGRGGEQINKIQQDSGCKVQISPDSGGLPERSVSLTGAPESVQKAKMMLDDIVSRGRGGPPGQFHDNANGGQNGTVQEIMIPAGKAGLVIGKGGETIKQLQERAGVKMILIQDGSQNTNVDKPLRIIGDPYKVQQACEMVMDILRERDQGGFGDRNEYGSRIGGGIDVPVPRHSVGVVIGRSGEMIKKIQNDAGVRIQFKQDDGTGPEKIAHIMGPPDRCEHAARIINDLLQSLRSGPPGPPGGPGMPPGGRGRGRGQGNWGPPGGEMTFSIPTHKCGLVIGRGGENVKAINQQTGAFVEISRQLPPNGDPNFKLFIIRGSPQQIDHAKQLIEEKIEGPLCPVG
# method: SPR; 25 C, single-cycle kinetics; SPR at 25 C, 1-20 uM G4 over immobilized protein (buffer not in the material); NMR at 25 C (298 K), protein in 5 mM KH2PO4/K2HPO4 pH 7.0, 20 mM KCl
# condition.context: protein: recombinant; tags: N-terminal His-tag (pET-28a), TEV-cleaved; hybrid G4, intramolecular
property.name: pKd
Remember, pKd is on a log scale: it is -log10 of the molar concentration.

TTGGGTTAGGGTTAGGGTTAGGGA (structured_DNA) [mTel24]    5.83

Next:
For the binder shown here, GGGCGCGGGAGGAATTGGGCGGG (structured_DNA) [Bcl-2] , give the reported pKd. 5.70
